Assay: Acute toxicity (mouse, intraperitoneal)
Conditions: in vivo, ip, 1:1 (by mole) mixture of compound (I) and sodium carbonate, anhydrate basis, read-out: CD50 (the source's name)
Value kind: LD50

Record summary for CN(C)CCn1nnnc1SCC1=C(C(=O)O)N2C(=O)[C@@H](NC(=O)Cc3csc(N)n3)[C@H]2SC1 : reported LD50 = ≥ 20000 mg/kg
